B1: Osa-1-4 twister ribozyme (parent)
chain: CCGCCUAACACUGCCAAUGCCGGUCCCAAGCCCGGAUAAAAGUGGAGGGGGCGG

# Variants of: B1
# EXPERIMENTAL DETAILS: self-cleavage, relative activity (ratio to wild type); higher = more cleavage; co-transcriptional
Classification by self-cleavage | ranges: low end = under 0.06, middle = from 0.06 up to 0.2, high end = 0.2 and over

• G19C G22C = low end
• C14U C27A = low end
• A38G C9G = high end
• G23C G45C = low end
• C26U G35C = middle

Next up:
Bin this entry: G23A G42A
middle
